- Tested on: CP269
- Assay overview: qHTS profiling for inhibitors of Plasmodium falciparum proliferation (AID 504749); further: nearly all actives have a fitted effect of over 60% in size
- Measurement setup: P. falciparum in erythrocytes, SYBR Green DNA, 72 h; series mostly up to 12.8 µM
Records with an inconclusive call do not appear. Active and inactive are the calls of the source. The call rests on the fitted dose curve; in most records, active means well fitted inhibition curve with a large enough effect; inconclusive means small, poorly fitted or top-dose-only effect; inactive means flat fitted curve, though single readings scatter.
Pick one and only one: active, inactive

Illustrative cases are given below, each with its answer.
Query: GET /call?item= "C=CCOc1ccccc1OC[C@H](O)CNC(C)C" returns the recorded outcome of this test.
Reply: inactive

Query: Please state the recorded outcome for this compound: COC1C=CO[C@@]2(C)Oc3c(C)c(O)c4c(O)c(c(C=NN5CCN(C)CC5)c(O)c4c3C2=O)NC(=O)/C(C)=C\C=CC(C)C(O)[C@@H](C)C(O)C(C)[C@H](OC(C)=O)C1C (stereo not given in full)
Reply: active

Query: Tell me the recorded outcome of this test for "O=C(N/N=C\c1ccc([N+](=O)[O-])o1)c1ccc(O)cc1" .
Reply: active

Query: Per the assay record, what outcome was assigned to "CC[N+](CC)(CC)CC[C@](O)(c1ccccc1)C1CCCCC1" ?
Reply: inactive

Kindly consider the entry below.
Query: Lab log entry: CNC1C(OC2C(O[C@@H]3C(O)C(O)[C@@H](N=C(N)N)C(O)C3N=C(N)N)OC(C)[C@@]2(O)CO)OC(CO)C(O)C1O (stereo not given in full) — outcome as called in the assay?
Reply: inactive

* * *

- Assay overview: qHTS Assay for Lipid Storage Modulators (AID 1519)
- Measurement setup: Drosophila S3 cells, BODIPY lipid droplet/cell ratio, laser cytometry; measured here: cell count channel max response; cells loaded with oleic acid
Results filed as inconclusive are left out.
Quantity name: max response (%)
# value in %; strip the unit string

Notebook: "CC(=O)c1cc2ccccc2oc1=O" , max response read as -14

max response reading for "CO[C@]1(NC(=O)[C@H](C(=O)O)c2ccc(O)cc2)C(=O)N2C(C(=O)O)=C(CSc3nnnn3C)CO[C@H]21" : -7.15

Recorded result, "C[C@H]1CS(=O)(=O)CCN1/N=C\c1ccc([N+](=O)[O-])o1" , max response: -15.4

Data point: O=c1[nH]c(=O)n(C2CC(O)C(CO)O2)cc1C(F)(F)F (centres undefined) ; max response = -2.79

Memo: "C[N+](C)(CCCOc1ccccc1)c1ccccc1" , reported max response: 0.349

Documented max response of "CN(C)c1ccc(O)c2c1C[C@H]1C[C@H]3[C@@H](N(C)C)C(=O)C(C(N)=O)=C(O)[C@]3(O)C(=O)C1=C2O" : 2.32

Short answer for "C=CC1=C(C)/C(=C/c2[nH]c(Cc3[nH]c(/C=C4\NC(=O)C(C)=C4C=C)c(C)c3CCC(=O)O)c(CCC(=O)O)c2C)NC1=O" : max response was 3.69

The compound listed as "Cc1c(S(=O)(=O)O)oc2c1C(=O)C(=O)c1c-2ccc2c1CCCC2(C)C" has a reported max response of 7.96

Quick note, max response for "Cc1onc(-c2c(Cl)cccc2Cl)c1C(=O)N[C@H]1C(=O)N2[C@H]1SC(C)(C)[C@H]2C(=O)O" landed at -2.7

* * *

- Test system: AS120
- Assay overview: qHTS profiling for inhibitors of Plasmodium falciparum proliferation (AID 504749); further: nearly all actives have a fitted effect of over 60% in size
- Measurement setup: P. falciparum in erythrocytes, SYBR Green DNA, 72 h; series mostly up to 12.8 µM
Inconclusive results are not listed. The source made the active and inactive calls. Calls come from the whole dose curve; as a rule, active = well fitted inhibition curve with a large enough effect; inconclusive = small, poorly fitted or top-dose-only effect; inactive = flat fitted curve, though single readings scatter. Peptide text beside a SMILES is read from it.
I would appreciate it if you answered using one of these outcomes: 1 = active, 0 = inactive

Query: Hey, what did the test say about CCC(CCC(C)C1CCC2C3CC=C4CC(O)CC[C@@]4(C)C3CC[C@@]12C)C(C)C (some centres not stated) ?
Reply: 0

Query: Can you look up the reported call for "Clc1ccc(CC[C@H](Cn2ccnc2)Sc2c(Cl)cccc2Cl)cc1" for me?
Reply: 1

Query: # outcome recorded in this test, key = CO[C@]1(NC(=O)C2SC(=C(C(N)=O)C(=O)O)S2)C(=O)N2C(C(=O)O)=C(CSc3nnnn3C)CS[C@H]21 (some centres not stated)
Reply: 0

Query: Please let me know the test result on file for OCC1OC(n2cnc3c(=S)nc[nH]c32)C(O)C1O (configuration not stated) .
Reply: 0

Query: Just curious, what result did CC1(C)OC2CC(=O)OC[C@@]23C1CC(=O)[C@]1(C)C3CC[C@@]2(C)C(c3ccoc3)OC(=O)C3O[C@@]321 (some centres not stated) get here?
Reply: 0

Query: # lookup: test call for "C[C@H](O)Cn1cnc2c1c(=O)n(C)c(=O)n2C"
Reply: 0

Query: Dear colleague, could you share the recorded outcome for "NC(=O)c1cc[n+](CC2=C(C(=O)[O-])N3C(=O)[C@@H](NC(=O)Cc4cccs4)[C@@H]3SC2)cc1" when you have a moment?
Reply: 0

Query: I'd appreciate the recorded outcome for "NS(=O)(=O)c1cc2c(cc1C(F)(F)F)N[C@H](Cc1ccccc1)NS2(=O)=O" from this test.
Reply: 0

Query: // param item: COC(=O)C(Cc1ccccc1)NC(=O)C(N)CC(=O)O (stereo not drawn) (H-Asp-Phe-OMe; configuration not given here) ; yields the recorded call
Reply: 0

Query: Name the outcome recorded for "Cn1nnnc1SCC1=C(C(=O)O)N2C(=O)[C@@H](NC(=O)[C@@H](O)c3ccccc3)[C@@H]2SC1" in the assay.
Reply: 0

Query: Each compound tested received a call. Report the one for "Clc1ccc([C@H](Cn2ccnc2)OCc2c(Cl)cccc2Cl)c(Cl)c1" .
Reply: 1

Query: # lookup: test call for "CCC[C@@H]1O[C@@H]2C[C@@H]3[C@H]4CCC5=CC(=O)C=C[C@@]5(C)[C@H]4[C@H](O)C[C@@]3(C)[C@@]2(C(=O)CO)O1"
Reply: 1

Data provenance: PubChem BioAssay (NCATS)
